tgt: ANT(2″)-Ia (Klebsiella pneumoniae)
Sequence (P0AE05 whole entry): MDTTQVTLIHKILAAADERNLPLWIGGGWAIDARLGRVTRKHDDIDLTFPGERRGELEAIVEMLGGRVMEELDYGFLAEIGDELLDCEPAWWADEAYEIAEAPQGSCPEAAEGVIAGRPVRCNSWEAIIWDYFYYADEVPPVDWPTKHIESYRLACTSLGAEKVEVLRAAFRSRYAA
assay: ANT
Type: biochemical
condition-notes: purified enzyme, 96 well format
quantity-measured: ANT(2″)-Ia inhibitory activity (in words)

// worked examples, ANT(2″)-Ia inhibitory activity (in words) included
1. Cc1cc(O)c(=O)c(O)cc1-c1ccc2ccccc2c1 [3k]: no activity at all
2. Cc1cc(O)c(=O)c(O)cc1C(=O)C1CCCCC1 [3p]: inactivity
3. Cc1cc(O)c(=O)c(O)cc1C(=O)CC1CCCCC1 [3q]: inactivity
4. Cc1cc(O)c(=O)c(O)cc1-c1cccc2ccccc12 [3j]: no activity at all

Please find the next compound below.
Query: Quick one: ANT(2″)-Ia inhibitory activity (in words) of Cc1cc(O)c(=O)c(O)cc1-c1ccc(C(F)(F)F)cc1 [3n] ?
Result: no activity at all
